target: Lysophosphatidic acid receptor 2 (Homo sapiens, UniProt Q9HBW0); assay: Intrinsic activity at human LPA2 receptor transfected in HEK293 cells after 1 hr by TGFalpha shedding assay relative to LPA; assay type: cell-based
Sequence (Q9HBW0 whole entry): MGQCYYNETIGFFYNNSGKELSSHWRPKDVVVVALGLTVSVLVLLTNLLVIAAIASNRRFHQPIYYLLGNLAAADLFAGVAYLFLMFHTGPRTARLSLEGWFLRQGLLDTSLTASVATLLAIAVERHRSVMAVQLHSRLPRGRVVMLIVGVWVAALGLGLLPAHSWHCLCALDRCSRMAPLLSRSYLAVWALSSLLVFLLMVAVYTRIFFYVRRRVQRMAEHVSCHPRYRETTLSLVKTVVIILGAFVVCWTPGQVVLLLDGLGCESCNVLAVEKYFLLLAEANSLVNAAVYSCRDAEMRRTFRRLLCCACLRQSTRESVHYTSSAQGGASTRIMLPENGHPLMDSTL
Binary call on Intrinsic activity: met from 0.2 upward, not met beneath that.

## Input State whether the measured Intrinsic activity reaches 0.2, counting equality as reaching it, for CCCCCCCCCCCCCCCCCOC(COC)COP(O)(O)=S (racemic)
## Output met

## Input Textbook exercise: given the entry CCCCCCCCCCCCCCCCOC(COC)COP(O)(O)=S (stereo unspecified) , state whether its Intrinsic activity is greater than or equal to 0.2.
## Output not met

## Input Kindly determine if Intrinsic activity recorded for `CCCCCCCCCCCCCCCCCCOC[C@@H](COP(O)(O)=S)OC` is above or exactly 0.2.
## Output met

## Input Quick check: does CCCCCCCCCCCCCCCCCC(=O)OCC(COP(=O)(O)S)OC (racemic) have Intrinsic activity greater than or equal to 0.2?
## Output not met

## Input Check the entry `CCCCCCCCCCCCCCCCCC(=O)OC[C@@H](COP(O)(O)=S)OC` : does Intrinsic activity equal or exceed 0.2?
## Output met

## Input Kindly determine if Intrinsic activity recorded for CCCCCCCCCCCCCCCCCC(=O)OC(COC)COP(O)(O)=S (racemic) is above or exactly 0.2.
## Output not met

----------
target: Lysophosphatidic acid receptor 2 (Homo sapiens, UniProt Q9HBW0); experiment: Intrinsic activity at human LPA2 receptor transfected in HEK293 cells after 1 hr by TGFalpha shedding assay relative to LPA; format: cell-based
Exercise: state measured Intrinsic activity for each of the molecules provided.
Answer with a number only.

## Input Intrinsic activity lookup needed for `CCCCCCCCCCCCCCCC(=O)OC[C@@H](O)COP(=O)(O)O` , thanks.
## Output 0.092

## Input Fill in the blank: the reported Intrinsic activity of `CCCCCCCCCCCCCCCCCC(=O)OC[C@H](COP(O)(O)=S)OC` is ____.
## Output 0.178

## Input Reported Intrinsic activity for CCCCCCCC/C=C\CCCCCCCC(=O)OC[C@@H](O)COP(=O)(O)O [LYSOPHOSPHATIDIC ACID] : what is it?
## Output 1

## Input So what does the record say about Intrinsic activity for `CCCCCCCCCCCCCCCCCCOC[C@H](COP(O)(O)=S)OC` ?
## Output 0.088

## Input Fill in: Intrinsic activity of CCCCCCCCCCCCCCCCCCOCC(COP(O)(O)=S)OC (racemic) is ___
## Output 0.26

----------
biological target: Lysophosphatidic acid receptor 5 (Homo sapiens); assay: Agonist activity at human LPA5 receptor transfected in HEK293 cells after 1 hr by TGFalpha shedding assay in presence of Ki16425; format: cell-based
Sequence (Q9H1C0 whole entry): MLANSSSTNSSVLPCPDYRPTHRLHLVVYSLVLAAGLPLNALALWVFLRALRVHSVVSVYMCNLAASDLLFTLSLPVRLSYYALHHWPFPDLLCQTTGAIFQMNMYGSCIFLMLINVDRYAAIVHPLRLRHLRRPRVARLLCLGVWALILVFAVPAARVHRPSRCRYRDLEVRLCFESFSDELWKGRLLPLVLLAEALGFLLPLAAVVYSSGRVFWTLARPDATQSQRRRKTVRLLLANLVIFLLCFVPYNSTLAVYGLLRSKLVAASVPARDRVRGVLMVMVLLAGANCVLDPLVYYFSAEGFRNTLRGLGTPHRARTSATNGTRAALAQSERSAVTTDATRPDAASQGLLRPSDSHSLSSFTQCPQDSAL
EC50 vs 3 nM: less than gives MET; not less than gives NOT MET.

## Input Below 3 nM on EC50? Entry CCCCCCCCCCCCCCCCCC(=O)OC(COC)COP(O)(O)=S (racemic)
## Output MET

## Input Determine whether this compound shows EC50 lower than 3 nM (ties excluded): `CCCCCCCCCCCCCCCCCC(=O)OC[C@H](COP(O)(O)=S)OC`
## Output NOT MET

## Input I'd appreciate it if you could check whether CCCCCCCCCCCCCCCCCC(=O)OCC(COP(=O)(O)S)OC (racemic) has EC50 smaller than 3 nM.
## Output NOT MET

## Input Report whether reported EC50 is lower than 3 nM (strictly) for CCCCCCCCCCCCCCCCOC(COC)COP(O)(O)=S (stereo not given)
## Output MET

## Input Input `CCCCCCCCCCCCCCCC(=O)OC[C@@H](O)COP(=O)(O)O` ; condition: EC50 strictly below 3 nM. Does it hold?
## Output NOT MET

## Input In plain terms, does CCCCCCCCCCCCCCCCCCOCC(COP(O)(O)=S)OC (racemic) come in under 3 nM for EC50?
## Output MET

## Input Quick check: does `CCCCCCCCCCCCCCCCCCOC[C@H](COP(O)(O)=S)OC` have EC50 under 3 nM?
## Output NOT MET

## Input Identify whether the compound `CCCCCCCCCCCCCCCCCCOC[C@@H](COP(O)(O)=S)OC` records EC50 below 3 nM.
## Output NOT MET

## Input Dear reviewer, please state whether `CCCCCCCCCCCCCCCCCC(=O)OC[C@@H](COP(O)(O)=S)OC` has EC50 strictly beneath 3 nM.
## Output NOT MET
